Property name: melting point

# example entries with known answers
>>> result("FC(F)(F)c1ccc2c(c1)Sc1ccccc1NC2=S")
"236 to 239 °C"
>>> result("CCOC(=O)C(c1ccc(Nc2nc(-c3cccc(NC(=O)c4cc5c(s4)CCCCC5)c3C)cn(C)c2=O)cc1)N1CCN(CC)CC1 (centres undefined)")
"168 to 170 °C"
>>> result("CC(=O)NC[C@H]1CN(c2ccc(N3CCC4(CC3)COCO4)cc2)C(=O)O1")
"134 to 138 °C"
>>> result("O=c1cc(NCCNCCOc2cccc3c2OCCO3)cn[nH]1")
"81 to 83 °C"
>>> result("CN(C)c1ccc(CN(C(=O)C2CCCc3c(O)cccc32)c2ccccc2)cc1 (centres undefined)")
"138 to 143 °C"

Query: # get_value(readout='melting point', item= COc1ccc(-n2cnc3ccc(-c4nnc(NCc5cccc(F)c5)o4)cc32)cc1 )
Response: 164 to 166 °C

Query: // repeat for CCCc1nc(C)n2nc(C)nc2c1Cc1ccc(-c2ccccc2C#N)cc1 and report
Response: 132 °C

Query: // repeat for CCOC(=O)C(C(=O)OCC)C(NC(C)=O)[PH](=O)O (centres undefined) and report
Response: 113 to 114 °C

Query: // repeat for CSc1ccc(-n2cnc(-c3ccc(F)cc3)c2-c2ccncc2)cc1 and report
Response: 172 to 173 °C

Query: // repeat for Cc1ccc(C(=O)c2cc3cc(Br)ccc3n2C)cc1 and report
Response: 169 to 171 °C
